protocol notes: small-molecule microarray binders of probe aShh, primary screen, biochemical, biotinylated probe, 635/667 nm fluorescence (AID 1114);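 also: probe is biotin-labelled aShh protein from a stem cell growth factor screen; measures binding of labelled protein to compounds printed on the slide; score merges feature fluorescence at 667 nm with signal-to-noise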
condition parameters: higher = more signal
Recorded composite z-score for the following compounds
// return just the number, without any unit appended

# compound, composite z-score
measured = [
    ("CN(C)CCCC[C@@H]1NC(=O)[C@H]2C[C@@H](C(=O)NCc3ccc(F)cc3)[C@@H](c3ccc(O)cc3)N2C1=O", 0.365),
]

Query block: Give composite z-score for `COCCOC(=O)N1C(=O)[C@@]2(c3cc(C#Cc4ccc(OC)cc4)ccc31)[C@H](C(=O)N1CCCCCCC1)[C@H]1C(=O)O[C@H](c3ccccc3)[C@H](c3ccccc3)N1[C@@H]2c1ccccc1OCCO`
Result block: 0.451

Query block: Identify measured composite z-score associated with COC(=O)C1=CC(CCCO)=CC(C2CC2)N(Cc2cccc(OC(F)(F)F)c2)C=C1C(=O)OC (centres undefined)
Result block: -0.0035

Query block: Hello, please tell me recorded composite z-score for this one: `[N-]=[N+]=NCc1ccccc1C[C@]1(C(=O)N2CCOCC2)N=C(c2ccc(OCCCO)cc2)O[C@H]1c1ccccc1CN=[N+]=[N-]`
Result block: 0.564

---

Here, each record is paired with measured composite z-score data.
System: glycogen synthase kinase-3 (GSK3A per assay name; protocol says GSK3B)
protocol notes: GSK3 binders on small-molecule microarrays, primary screen, biochemical, small-molecule microarray, 635 nm fluorescence, GSK3A (AID 1103); also: the record names both GSK3A and GSK3B
condition parameters: small-molecule microarray binding, fluorescence 635 nm; higher = more signal
Keep the answer to the number alone.

Check out these entries, answers already filled in.
# compound, target under test, recorded endpoint, experimental result
data = [
    ("COCCOC(=O)N1C(=O)[C@@]2(c3cc(C#Cc4ccc(OC)cc4)ccc31)[C@H](C(=O)N1CCCCCCC1)[C@H]1C(=O)O[C@H](c3ccccc3)[C@H](c3ccccc3)N1[C@@H]2c1ccccc1OCCO", "glycogen synthase kinase-3 (GSK3A per assay name; protocol says GSK3B)", "composite z-score", 1.32),
    ("COCC1=C([C@H](O)CCc2ccccc2)[C@H](CO)n2c(=O)n(-c3ccccc3)c(=O)n2C1", "glycogen synthase kinase-3 (GSK3A per assay name; protocol says GSK3B)", "composite z-score", -0.295),
    ("COc1ccc(C(O)C2C=CC3C(=O)N(C)C(=O)C3N2Nc2ccc([N+](=O)[O-])cc2[N+](=O)[O-])cc1OCc1ccccc1 (stereo not drawn)", "glycogen synthase kinase-3 (GSK3A per assay name; protocol says GSK3B)", "composite z-score", 0.858),
]

Query block: Give composite z-score only, for `CCCC[C@H]1OB(O)C[C@H]2C1=C(C)C[C@H]1C(=O)C=CC(=O)[C@H]12` , using glycogen synthase kinase-3 (GSK3A per assay name; protocol says GSK3B) data.
Result block: 0.827

Query block: Lab note: record composite z-score of CC1CC/C=C\[C@H]2OC34C=CCN(CCN5CCOCC5)C(=O)[C@H]3N(CCCCCCO)C(=O)[C@@H]4C2C(=O)O1 (stereo partly drawn) tested on glycogen synthase kinase-3 (GSK3A per assay name; protocol says GSK3B).
Result block: -0.993

Query block: Write composite z-score of `COCCOC(=O)N1C(=O)[C@@]2(c3cc(C#CC4=CCCCC4)ccc31)[C@H](c1ccccc1OCCO)N1[C@H](c3ccccc3)[C@H](c3ccccc3)OC(=O)[C@H]1[C@@H]2C(N)=O` ; system used: glycogen synthase kinase-3 (GSK3A per assay name; protocol says GSK3B)
Result block: 1.31

Query block: Recall the reported composite z-score of `CC(C)CNC(=O)[C@@H]1c2ccccc2C(=O)N(C2Cc3ccccc3C2)[C@H]1c1ccc(CO)cc1` on glycogen synthase kinase-3 (GSK3A per assay name; protocol says GSK3B) and write it down.
Result block: -0.0545

Query block: Given `O=C1c2ccccc2[C@@]2(Cc3ccccc3N(Cc3ccccc3)C2=O)[C@H](c2ccc(CO)cc2)N1Cc1ccccc1` , report its composite z-score on glycogen synthase kinase-3 (GSK3A per assay name; protocol says GSK3B).
Result block: -1.37

Query block: Please look at `CC1(C)OC[C@@]23C=C(Br)[C@@H](C[C@H]12)[C@@]1(CO1)C3=O` and tell me its recorded composite z-score on glycogen synthase kinase-3 (GSK3A per assay name; protocol says GSK3B).
Result block: 0.691
